- system: UniProt:P30969
- Sequence (P30969 whole entry): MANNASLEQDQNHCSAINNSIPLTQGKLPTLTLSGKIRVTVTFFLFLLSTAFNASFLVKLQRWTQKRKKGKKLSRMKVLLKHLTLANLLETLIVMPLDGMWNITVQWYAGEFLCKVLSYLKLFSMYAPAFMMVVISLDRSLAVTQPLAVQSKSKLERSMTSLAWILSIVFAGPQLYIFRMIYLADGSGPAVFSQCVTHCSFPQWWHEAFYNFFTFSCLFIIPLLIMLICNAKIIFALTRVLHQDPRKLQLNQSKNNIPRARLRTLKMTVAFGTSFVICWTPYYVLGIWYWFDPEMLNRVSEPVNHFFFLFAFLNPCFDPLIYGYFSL
- assay: Inhibition of binding of radiolabeled histrelin to Gonadotropin-releasing hormone receptor (GnRHr) in rat pituitary gland membranes
- Assay type: cell membranes, Membrane
pIC50: −log10 of the molar value.

{"molecule": "CC(=O)Nc1ccc(C[C@H](NC(=O)[C@H](CO)NC(=O)[C@@H](Cc2cccnc2)NC(=O)[C@@H](Cc2ccc(Cl)cc2)NC(=O)[C@@H](Cc2ccc3ccccc3c2)NC(C)=O)C(=O)N[C@H](Cc2ccc(NC(C)=O)cc2)C(=O)N[C@@H](NC(C)=O)C(=O)N[C@@H](CCCCNC(C)C)C(=O)N2CCC[C@H]2C(=O)N[C@H](C)C(N)=O)cc1", "pIC50": 8.30}
{"molecule": "CC(=O)Nc1ccc(C[C@@H](NC(=O)[C@@H](NC(=O)c2ccc(NC(C)=O)cc2)NC(=O)[C@H](CO)NC(=O)[C@@H](Cc2cccnc2)NC(=O)[C@@H](Cc2ccc(Cl)cc2)NC(=O)[C@@H](Cc2ccc3ccccc3c2)NC(C)=O)C(=O)N[C@@H](CC(C)C)C(=O)N[C@@H](CCCCNC(C)C)C(=O)N2CCC[C@H]2C(=O)N[C@H](C)C(N)=O)cc1", "pIC50": 9.29}
{"molecule": "CC(=O)Nc1ccc(C[C@H](NC(=O)[C@H](CO)NC(=O)[C@@H](Cc2cccnc2)NC(=O)[C@@H](Cc2ccc(Cl)cc2)NC(=O)[C@@H](Cc2ccc3ccccc3c2)NC(C)=O)C(=O)N[C@H](Cc2ccc(NC(C)=O)cc2)C(=O)N[C@@H](CC(C)C)C(=O)N[C@H](C(=O)N2CCC[C@H]2C(=O)N[C@H](C)C(N)=O)N(C)C(=O)CCNC(C)C)cc1 (single isomer, unassigned)", "pIC50": 9.30}
